# Test system: Rhizoctonia solani (Rs)
# test: Growth inhibition assay of fungal pathogens, Rs
# Type: cell-based
# measurementConditions: 48 h, mycelial plugs, growth inhibition at 48 hours vs 2% DMSO control, read-out: Concentration at 90% Inhibition Rs
outcomeMeasure: IC90 (µg/mL)
Give the quantity in µg/mL, number only.

compound: CCOC(=O)C(C)(C)n1c(=O)c2c(C)c(-n3nccn3)sc2n(C[C@H](OCCO)c2cc(F)ccc2OC)c1=O [Compound I-74]
IC90, µg/mL: 0.08
--
compound: COc1ccc(F)cc1[C@H](Cn1c(=O)n([C@H](C)C(=O)N(C)C(C)C)c(=O)c2c(C)c(-n3nccn3)sc21)OCCC#N [Compound I-139]
IC90, µg/mL: 0.08

Now take the following compound into account.
**Q:** What value of IC90 has been reported for the following compound? Cc1c(-n2nccn2)sc2c1c(=O)n(C(C)(C)C(=O)NC(C)C)c(=O)n2C[C@H](OCCO)c1cc(F)ccc1O [Compound I-226]
**A:** 2
